Reference source for all entries: ChEMBL document CHEMBL4689842

Test system: Fibroblast
procedure.text: Multiplex assay against human fibroblast
Assay type: toxicity, cell-based
assay.setup: 48 h, 1 µM, compound concentration 1 uM, replicate 1
observation.type: Population Fragmented Nuclei (%)
Write the quantity with the unit trailing the number.

Dear colleague, I am looking for the recorded Population Fragmented Nuclei (%) of the following compound: O=C(Cc1ccc(-c2ccc(OCCN3CCOCC3)cc2)cn1)NCc1ccccc1
40%

Dear colleague, I am looking for the recorded Population Fragmented Nuclei (%) of the following compound: O=C(Nc1ccc(Cl)cc1)Nc1cccc(-c2cccc(N3CCCC3)n2)c1
40%

Dear colleague, I am looking for the recorded Population Fragmented Nuclei (%) of the following compound: Cc1cn(-c2cc(NC(=O)c3ccc(C)c(Nc4nccc(-c5cccnc5)n4)c3)cc(C(F)(F)F)c2)cn1
32%

Dear colleague, I am looking for the recorded Population Fragmented Nuclei (%) of the following compound: O=C(Nc1ccc(-n2nc(-c3cccnc3)cc2C(F)(F)F)cn1)c1ccc(-c2ccccc2)c(F)c1
26%

Dear colleague, I am looking for the recorded Population Fragmented Nuclei (%) of the following compound: O=C1N/C(=N/c2ccccc2F)S/C1=C\c1ccc(C(=O)O)cc1
35%

Dear colleague, I am looking for the recorded Population Fragmented Nuclei (%) of the following compound: CN1C2CCC1CC(OC(c1ccc(F)cc1)c1ccc(F)cc1)C2.Cl (stereo unspecified)
34%

Dear colleague, I am looking for the recorded Population Fragmented Nuclei (%) of the following compound: CCc1cccc(CC)c1NC(=O)c1nn(C)c2c1CCc1cnc(Nc3ccc(C(=O)NC4CCN(C)CC4)cc3OC(F)(F)F)nc1-2
31%

Dear colleague, I am looking for the recorded Population Fragmented Nuclei (%) of the following compound: CCN1CCN(Cc2ccc(Nc3ncc(F)c(-c4cc(F)c5nc(C)n(C(C)C)c5c4)n3)nc2)CC1.CS(=O)(=O)O
43%

Dear colleague, I am looking for the recorded Population Fragmented Nuclei (%) of the following compound: CCOc1cc2ncc(C#N)c(Nc3ccc(OCc4ccccn4)c(Cl)c3)c2cc1NC(=O)/C=C/CN(C)C
36%

Dear colleague, I am looking for the recorded Population Fragmented Nuclei (%) of the following compound: COc1cc(N2CCN(C)CC2)ccc1Nc1ncc2c(n1)N(C)c1ccccc1C(=O)N2C
34%

Dear colleague, I am looking for the recorded Population Fragmented Nuclei (%) of the following compound: S=C(NCCCc1c[nH]cn1)NCCCN(Cc1ccc(Cl)c(Cl)c1)c1ccc(Br)cn1
50%

Dear colleague, I am looking for the recorded Population Fragmented Nuclei (%) of the following compound: CCOc1cc(C(=O)N2CCC(N3CCN(C)CC3)CC2)ccc1Nc1ncc2c(n1)N(C1CCCC1)c1ccccc1C(=O)N2C
37%

Dear colleague, I am looking for the recorded Population Fragmented Nuclei (%) of the following compound: CCn1c(=O)c(-c2ccc(-c3cncs3)cc2Cl)cc2cnc(Nc3ccc(N4CCN(C)CC4)cc3)nc21
36%

Dear colleague, I am looking for the recorded Population Fragmented Nuclei (%) of the following compound: CNc1cc(Oc2cc(C(=O)Nc3cc(N4CCN(C)CC4)cc(C(F)(F)F)c3)ccc2C)ncn1
37%

Dear colleague, I am looking for the recorded Population Fragmented Nuclei (%) of the following compound: CN1CCC(=C2c3ccccc3CC(=O)c3sccc32)CC1.O=C(O)/C=C/C(=O)O [KETOTIFEN FUMARATE]
34%

Dear colleague, I am looking for the recorded Population Fragmented Nuclei (%) of the following compound: C=C1/C(=C\C=C2/CCC[C@]3(C)[C@@H]([C@H](C)/C=C/[C@H](C)C(C)C)CC[C@@H]23)C[C@@H](O)C[C@@H]1O
22%
